tested on: Enterococcus sp.; experiment: in vitro antibacterial evaluation, MIC by broth dilution; format: cell-based; settings: Enterococcus faecium (GC 4556); broth dilution, 18 hours at 35° C.
PROPERTY LABEL: MIC Enterococcus faecium (GC 4556)

Guide cases for MIC Enterococcus faecium (GC 4556), answers given:
{"COMPOUND": "CC(c1ccccc1)C1NC(=O)CNC(=O)C(CO)NC(=O)C(C(O)C2CNC(=N)N2C2OC(CO)C(O)C(O)C2O)NC(=O)C(C(O)C2CNC(=N)N2)NC(=O)C(Cc2ccc(OC3OC(CO)C(OC4OC5COC(c6cccs6)OC5C(O)C4O)C(O)C3O)cc2)NC1=O (stereo not shown) [Example 132]", "RESULT": "8 µg/mL"}
{"COMPOUND": "COc1cc(C2OCC3OC(OC4C(CO)OC(Oc5ccc(CC6NC(=O)C(C(C)c7ccccc7)NC(=O)CNC(=O)C(CO)NC(=O)C(C(O)C7CNC(=N)N7C7OC(CO)C(O)C(O)C7O)NC(=O)C(C(O)C7CNC(=N)N7)NC6=O)cc5)C(O)C4O)C(O)C(O)C3O2)ccc1[N+](=O)[O-] (stereo not shown) [Example 153]", "RESULT": "4 µg/mL"}
{"COMPOUND": "COC1CCC2(C)C(CCC3C2CCC2(C)C(C(C)CCC4OCC5OC(OC6C(CO)OC(Oc7ccc(CC8NC(=O)C(C(C)c9ccccc9)NC(=O)CNC(=O)C(CO)NC(=O)C(C(O)C9CNC(=N)N9C9OC(CO)C(O)C(O)C9O)NC(=O)C(C(O)C9CNC(=N)N9)NC8=O)cc7)C(O)C6O)C(O)C(O)C5O4)CCC32)C1 (stereo not shown) [Example 130]", "RESULT": "64 µg/mL"}

Turning now to a further record.
### Prompt // returns reported MIC Enterococcus faecium (GC 4556) for input CC(C)CC(=O)OC1C(OC2C(CO)OC(Oc3ccc(CC4NC(=O)C(C(C)c5ccc(F)cc5)NC(=O)CNC(=O)C(CO)NC(=O)C(C(O)C5CNC(=N)N5C5OC(CO)C(O)C(O)C5O)NC(=O)C(C(O)C5CNC(=N)N5)NC4=O)cc3)C(O)C2O)OC(CO)C(O)C1O (stereo not shown) [Example 261b]
### Response 64 µg/mL

Source: patent US6914045B2
